B1: Twister Ribozyme (parent)
chain: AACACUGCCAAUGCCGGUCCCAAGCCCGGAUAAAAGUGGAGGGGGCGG

Variants of: B1
Method description: self-cleavage, relative activity (ratio to wild type); higher = more cleavage; co-transcriptional
# label = 1.0 if self-cleavage >= 0.2 else 0.0

Variant	Class label
C26A G29U	1.0
G16A A22U	1.0
C8G G36A	0.0
C8A U31C	1.0
G17C A23U	0.0
C9U U18G	0.0
C3G G39U	0.0
A32U A33U	1.0
C15A G39C	0.0
C5U C9U	1.0
A10U C21G	0.0
G13A U31C	1.0
C5U U12G	1.0
U6A C9A	0.0
U12A G13C	1.0
U6G A35G	1.0
U12G A35U	1.0
C25A A34C	0.0
C3U G43C	0.0
C14U U31G	1.0
A1G A4U	1.0
C20U U37A	1.0
